tested on: LNCaP; assay: Antiproliferative activity against human LNCaP cells expressing p53 assessed as inhibition of cell growth by MTT assay; assay type: functional, cell-based

>  <smiles input>
COc1ccc([C@@H]2CN(C)[C@@]3(C(=O)Nc4ccccc43)[C@]23N=C(c2ccc(C)cc2)OC3=O)cc1

>  <IC50 (nM)>
1080

$$$$

---

system: HeLa; test: Antiproliferative activity against human HeLa cells assessed as inhibition of cell growth by MTT assay; type: functional, cell-based
pIC50: −log10 of the molar value.

>  <smiles input>
C[C@@H]1[C@@H]2CCCC[C@@H]2N2[C@H]1[C@@H](c1ccc(F)cc1)[C@@]1(CCC/C(=C\c3ccc(F)cc3)C1=O)[C@@]21C(=O)Nc2cc(Cl)ccc21

>  <tested system>
HeLa

>  <pIC50>
5.14

$$$$
>  <smiles input>
Cc1cc(S(=O)(=O)/N=C2/NCCN2Cc2cc(C(F)(F)F)cc(C(F)(F)F)c2)c(SCc2nc(N)nc(N3CCN(Cc4ccccc4)CC3)n2)cc1Cl

>  <tested system>
HeLa

>  <pIC50>
5.32

$$$$
>  <smiles input>
Cc1cc(S(=O)(=O)/N=C2/NCCN2Cc2cc(C(F)(F)F)cc(C(F)(F)F)c2)c(SCc2nc(N)nc(N3CCN(c4ccccc4)CC3)n2)cc1Cl

>  <tested system>
HeLa

>  <pIC50>
5.44

$$$$
>  <smiles input>
Cc1cc(S(=O)(=O)/N=C2/NCCN2Cc2ccc(C(F)(F)F)cc2)c(SCc2nc(N)nc(N3CCN(c4cccc(C(F)(F)F)c4)CC3)n2)cc1Cl

>  <tested system>
HeLa

>  <pIC50>
5.30

$$$$
>  <smiles input>
Cc1cc(S(=O)(=O)/N=C2/NCCN2Cc2ccc(C(F)(F)F)cc2)c(SCc2nc(N)nc(N3CCN(c4cccc(F)c4)CC3)n2)cc1Cl

>  <tested system>
HeLa

>  <pIC50>
5.34

$$$$
>  <smiles input>
C[C@@H]1[C@@H]2CCCC[C@@H]2N2[C@H]1[C@@H](c1ccccc1)[C@@]1(CCC/C(=C\c3ccccc3)C1=O)[C@@]21C(=O)Nc2ccccc21

>  <tested system>
HeLa

>  <pIC50>
5.15

$$$$

---

Here, each record is paired with measured IC50 data.
tested on: A549; assay: Antiproliferative activity against human A549 cells assessed as inhibition of cell growth; type: functional, cell-based
measurement kind: IC50 (µM)

>  <compound>
O=C(Nc1cccc(Cl)c1)Sc1nnc(-c2ccc(Cl)cc2)n1-c1ccccc1

>  <tested system>
A549

>  <measurement kind>
IC50

>  <val>
3.85

$$$$
>  <compound>
O=C(c1nc2ccccc2[nH]1)[C@H]1[C@H](c2ccccc2)C2CC3CCCCC3N2[C@]12C(=O)Nc1ccc(Cl)cc12 (stereo partly drawn)

>  <tested system>
A549

>  <measurement kind>
IC50

>  <val>
7.81

$$$$
>  <compound>
O=C1/C(=C/c2cccc(Cl)c2)c2ccccc2N1S(=O)(=O)c1cccc(Cl)c1

>  <tested system>
A549

>  <measurement kind>
IC50

>  <val>
12.5

$$$$

---

system: U-87 MG; test: Antiproliferative activity against human U-87 MG cells assessed as inhibition of cell growth by CCK-8 assay; assay type: functional, cell-based, U-87MG ATCC

>  <compound>
O=C1NC(O)(c2ccc(Cl)cc2)C(c2ccc(Cl)cc2)=C1c1ccc(Cl)cc1 (stereo unspecified)

>  <tested system>
U-87 MG

>  <IC50 (nM)>
930

$$$$
